Biological target: T1, hPD-1-Fc (human, UniProt Q15116 25-167)
T1 construct: domain: IgV domain; also called human PD-1-Fc; not shown: human IgG1 Fc
T1 sequence (Q15116 25-167 limits assumed): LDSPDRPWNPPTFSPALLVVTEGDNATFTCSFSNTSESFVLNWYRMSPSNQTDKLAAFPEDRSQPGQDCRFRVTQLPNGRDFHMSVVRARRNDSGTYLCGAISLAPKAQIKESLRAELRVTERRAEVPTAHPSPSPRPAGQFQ
Test: SPR Biacore T200, PD-1-Fc immobilised
measured_metric: pKd
Keep in mind that pKd stands for -log10 of concentration in molar terms.

binder="24H9 (antibody, human IgG1, V domains shown) VH: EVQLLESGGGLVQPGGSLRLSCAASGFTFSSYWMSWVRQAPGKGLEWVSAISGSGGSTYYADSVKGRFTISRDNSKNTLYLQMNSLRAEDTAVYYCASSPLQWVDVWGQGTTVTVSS VL: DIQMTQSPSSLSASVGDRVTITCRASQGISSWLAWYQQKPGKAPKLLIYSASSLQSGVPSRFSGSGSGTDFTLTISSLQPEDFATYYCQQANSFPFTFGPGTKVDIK" measured_metric=pKd readout_number=8.84

// below: pKd requested for another binder
Would you mind telling me what pKd value was observed for 38B2 (antibody, V domains shown, 24H9 derivative, IgG; also called 780_54; hPD1 Ab (38B2)) VH: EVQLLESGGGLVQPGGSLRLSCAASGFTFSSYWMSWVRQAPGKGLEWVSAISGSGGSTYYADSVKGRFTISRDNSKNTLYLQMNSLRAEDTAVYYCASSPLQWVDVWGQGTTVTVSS VL: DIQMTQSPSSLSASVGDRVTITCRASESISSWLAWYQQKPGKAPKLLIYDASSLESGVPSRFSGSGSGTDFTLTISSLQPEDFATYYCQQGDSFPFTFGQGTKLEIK ? 9.60
